// data source = patent US20100028485A1

system: EG VII; test: Effects of metal ions, chemical modification reagents, detergents and potential inhibitors on EG VII; type: biochemical, Talaromyces emersonii; conditions: Preincubation of enzyme with reagent for 30 min (50 C) prior to addition of substrate; further: test concentration or dose not given here
Property: EG VII activity, Enzyme + reagent (control = 100.0)
One number for each entry.

// below: answered compounds
> print(dat)
                                   compound  reported.result
1  O=C(O)c1cc[c]([Hg+])cc1.[OH-] [p-Hydroxymercuribenzoate]             99.5
2    CC[n+]1ccc(-c2cccc(S(=O)(=O)[O-])c2)o1            305.9
3                                  O=C(O)CS            188.1
4  O=C(O)c1cc[c]([Hg][Cl])cc1 [p-Chloromercuribenzoate]            105.4
5          C[S+](C)[O-] [Dimethylsuphoxide]            194.0

Below are some compounds; for each one, tell me its EG VII activity, Enzyme + reagent (control = 100.0).
1. [Cl-].c1ccc(-c2nn(-c3ccccc3)[n+](-c3ccccc3)n2)cc1 [2,3,5-Triphenyltetrazolium Chloride]
2. O=C1CCC(=O)N1Br [N-Bromosuccinimide (NBS), N-Bromosuccinimide]
3. O[C@H](CS)[C@@H](O)CS
4. O=Cc1ccccc1C=O
5. N[C@@H](CS)C(=O)O
6. OC(CS)C(O)CS (racemic)

1. 98.5
2. 0.0
3. 773.8
4. 155.0
5. 196.5
6. 575.0
